Provenance of the data: ChEMBL document CHEMBL6153076

// log10 IC50 lookup, one value per entry
Tested on: BT-549
procedure_details: cells
conditions_used: Homo sapiens, BT-549, 72 h
Description: Antiproliferative activity against human BT-549 cells assessed as inhibition of cell proliferation incubated for 72 hrs by MTT assay
Heads up: the numbers are on a log10 scale; they represent IC50 in nM.

The following compounds have reported results that may help.
I'd like to know its log10 IC50. The compound in question is "Cc1sc2c(c1C)C(c1ccc(Cl)cc1)=N[C@@H](CC(=O)NCCOCCOCCNC(=O)CCl)c1nnc(C)n1-2"
3.24

Also "Cc1sc2c(c1C)C(c1ccc(Cl)cc1)=N[C@@H](CC(=O)NCCN1CCN(C(=O)CCl)CC1)c1nnc(C)n1-2" ?
3.84

Also "Cc1sc2c(c1C)C(c1ccc(Cl)cc1)=N[C@@H](CC(=O)N1CCN(C(=O)CCl)CC1)c1nnc(C)n1-2" ?
2.86

Also "Cc1sc2c(c1C)C(c1ccc(Cl)cc1)=N[C@@H](CC(=O)NCCOCCNC(=O)CCl)c1nnc(C)n1-2" ?
3.53

Also "Cc1sc2c(c1C)C(c1ccc(Cl)cc1)=N[C@@H](CC(=O)NC1CCN(C(=O)CCl)CC1)c1nnc(C)n1-2" ?
2.72

Also "Cc1sc2c(c1C)C(c1ccc(Cl)cc1)=N[C@@H](CC(=O)NCCCCNC(=O)CCl)c1nnc(C)n1-2" ?
3.72

Also "Cc1sc2c(c1C)C(c1ccc(Cl)cc1)=N[C@@H](CC(=O)NCCCN1CCN(C(=O)CCl)CC1)c1nnc(C)n1-2" ?
3.39

Also "Cc1sc2c(c1C)C(c1ccc(Cl)cc1)=N[C@@H](CC(=O)Nc1ccc(N3CCN(C(=O)CCl)CC3)cc1)c1nnc(C)n1-2" ?
3.88

Also "Cc1sc2c(c1C)C(c1ccc(Cl)cc1)=N[C@@H](CC(=O)NCCCNC(=O)CCl)c1nnc(C)n1-2" ?
3.36

Also "Cc1sc2c(c1C)C(c1ccc(Cl)cc1)=N[C@@H](CC(=O)Nc1ccc(NC(=O)CCl)cc1)c1nnc(C)n1-2" ?
2.99

---
I'd like to know its log10 IC50. The compound in question is "Cc1sc2c(c1C)C(c1ccc(Cl)cc1)=N[C@@H](CC(=O)NCc1ccc(NC(=O)CCl)cc1)c1nnc(C)n1-2"
3.00

Also "Cc1sc2c(c1C)C(c1ccc(Cl)cc1)=N[C@@H](CC(=O)NCCNC(=O)CCl)c1nnc(C)n1-2" ?
3.38

Also "Cc1sc2c(c1C)C(c1ccc(Cl)cc1)=N[C@@H](CC(=O)Nc1ccc(CNC(=O)CCl)cc1)c1nnc(C)n1-2" ?
3.03

Also "Cc1sc2c(c1C)C(c1ccc(Cl)cc1)=N[C@@H](CC(=O)OC(C)(C)C)c1nnc(C)n1-2" ?
4.30

Also "Cc1sc2c(c1C)C(c1ccc(Cl)cc1)=N[C@@H](CC(=O)NCCCCCCNC(=O)CCl)c1nnc(C)n1-2" ?
3.73

Also "Cc1sc2c(c1C)C(c1ccc(Cl)cc1)=N[C@@H](CC(=O)NCc1ccc(CNC(=O)CCl)cc1)c1nnc(C)n1-2" ?
2.98
